# key: entry, value: inhibition
# Assayed Target: Guanyl-specific ribonuclease T1 (Aspergillus oryzae (strain ATCC 42149 / RIB 40)) (UniProt P00651)
# Sequence (P00651 whole entry, looked up): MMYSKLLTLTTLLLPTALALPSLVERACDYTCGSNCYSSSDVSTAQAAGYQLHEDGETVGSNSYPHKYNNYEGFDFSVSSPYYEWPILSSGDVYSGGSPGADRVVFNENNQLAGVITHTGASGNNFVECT
# Procedure Text: RNase T1 inhibitors, counter-screen for TPT1 inhibitor project, biochemical, fluorescence polarization (AID 2153);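 also: plate controls were DMSO wells with enzyme for no effect and wells without RNase T1 for full effect; inhibitors block cleavage so intact labeled substrate keeps polarization high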
# Stated Conditions: RNase T1 cleavage, 1536-well, at 5 µM, stronger effect = higher value
Hit rate of the full screen: of about 2,400 compounds, about 2,000 (83%) were called active. So high a share suggests a set chosen from earlier hits. A selection follows.
Answer in %, number only, no unit symbol.

Example entries and their recorded answers appear below.
>  <Compound>
Cc1ccc(C)c2[nH]c(=O)c(CCNC(=O)CC(C)C)cc12

>  <inhibition / %>
6.2

$$$$
>  <Compound>
Cc1ccc(N=C2NC(=O)/C(=C/C=C/c3ccco3)S2)cc1C

>  <inhibition / %>
30.5

$$$$

The value of inhibition measured for the compound C[n+]1ccc(/C=C/c2c[nH]c3ccccc23)cc1 turned out to be 63.7

The value of inhibition measured for the compound COc1cc(N2CCCC2)c(OC)cc1/C=C(/C#N)c1cccc(Br)c1 turned out to be 91.3

----------
# Assayed Target: Guanyl-specific ribonuclease T1 (Aspergillus oryzae (strain ATCC 42149 / RIB 40)) (UniProt P00651)
# Procedure Text: RNase T1 inhibitors, counter-screen for TPT1 inhibitor project, biochemical, fluorescence polarization (AID 2153)
# Stated Conditions: RNase T1 cleavage, 1536-well, at 5 µM, stronger effect = higher value
Hit rate of the full screen: of about 2,400 compounds, about 2,000 (83%) were called active. The set was probably picked from earlier hits. A selection follows.
# key: entry, value: inhibition
Answer in %, number only, no unit symbol.

Example entries and their recorded answers appear below.
>  <Molecule>
Cc1ccc(-c2nn(-c3ccccc3)cc2/C=C2\SC(=S)N(CCCCCC(=O)O)C2=O)o1

>  <Unit Label>
%

>  <Result Number>
73.6

$$$$
>  <Molecule>
CS(=O)(=O)c1ccc2c(c1)SC1=NC(=O)/C(=C/c3ccco3)C(=N)N12

>  <Unit Label>
%

>  <Result Number>
60.6

$$$$
>  <Molecule>
Fc1ccc2nc(Nc3nc4c(s3)CCCC4)sc2c1

>  <Unit Label>
%

>  <Result Number>
37.5

$$$$
>  <Molecule>
CN1C(=O)/C(=C\c2ccc(-c3ccccc3)o2)SC1=S

>  <Unit Label>
%

>  <Result Number>
96.2

$$$$

As a next step, examine the molecule that follows.
The value of inhibition measured for the molecule Cc1ccc(CSCC2Nc3ccc(C(=O)N4CCN(c5ccc(F)cc5)CC4)cc3NC2=O)cc1 (stereo not given) turned out to be 22.8

----------
# Assayed Target: Guanyl-specific ribonuclease T1 (Aspergillus oryzae (strain ATCC 42149 / RIB 40))
# Procedure Text: RNase T1 inhibitors, counter-screen for TPT1 inhibitor project, biochemical, fluorescence polarization (AID 2153)
# Stated Conditions: RNase T1 cleavage, 1536-well, at 5 µM, stronger effect = higher value
The campaign covered roughly 2,400 compounds. About 2,000 (83%) were called active. So high a share suggests a set chosen from earlier hits. Not all results are given here.
Criterion: inhibition meeting or surpassing 50%. Met: yes (1). Not met: no (0).

>  <Smiles Notation>
O=C(NNc1c2ccccc2nc2ccccc12)c1cc2ccccc2cc1O

>  <Assigned Class>
no (0)

$$$$
>  <Smiles Notation>
CCN(CC)c1ccc(/C=N/Nc2nc(C)cc(C)n2)c(O)c1

>  <Assigned Class>
no (0)

$$$$
>  <Smiles Notation>
Cc1ccc(Nc2nc(Cl)c(C=O)s2)cc1

>  <Assigned Class>
yes (1)

$$$$

Identify whether the reported inhibition of the following compound is 50% or greater: CCCCCCc1cc2cc(-c3nnc(-c4ccccc4)o3)c(=O)oc2cc1O
yes (1)

Identify whether the reported inhibition of the following compound is 50% or greater: COc1cc(/C=C2/SC(=S)N(Cc3ccccc3)C2=O)cc(OC)c1O
yes (1)

Identify whether the reported inhibition of the following compound is 50% or greater: O=C(CN1C(=O)c2ccccc2C1=O)NCc1ccc(C(=O)O)cc1
no (0)

Identify whether the reported inhibition of the following compound is 50% or greater: Cc1cc(C)c(/C=C2\C(=O)Nc3ccccc32)[nH]1
yes (1)

----------
# key: entry, value: inhibition
# Assayed Target: Guanyl-specific ribonuclease T1 (Aspergillus oryzae (strain ATCC 42149 / RIB 40))
# Procedure Text: RNase T1 inhibitors, counter-screen for TPT1 inhibitor project, biochemical, fluorescence polarization (AID 2153);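 also: plate controls were DMSO wells with enzyme for no effect and wells without RNase T1 for full effect; inhibitors block cleavage so intact labeled substrate keeps polarization high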
# Stated Conditions: RNase T1 cleavage, 1536-well, at 5 µM, stronger effect = higher value
The campaign covered roughly 2,400 compounds. About 2,000 (83%) were called active. So high a share suggests a set chosen from earlier hits. These entries were drawn from the full list.
Answer in %, number only, no unit symbol.

Example entries and their recorded answers appear below.
>  <Compound>
CN(C)CCCn1c(N)c(C#N)c2nc(C#N)c(C#N)nc21

>  <Assayed Target>
Guanyl-specific ribonuclease T1 (Aspergillus oryzae (strain ATCC 42149 / RIB 40))

>  <Unit Label>
%

>  <inhibition>
58.9

$$$$
>  <Compound>
CN=c1scc(-c2cc(OC)ccc2OC)n1/N=C/c1c(C)[nH]c2ccccc12

>  <Assayed Target>
Guanyl-specific ribonuclease T1 (Aspergillus oryzae (strain ATCC 42149 / RIB 40))

>  <Unit Label>
%

>  <inhibition>
32.1

$$$$
>  <Compound>
Cc1nc2ccccc2nc(=O)c1NNc1ccc([N+](=O)[O-])cc1

>  <Assayed Target>
Guanyl-specific ribonuclease T1 (Aspergillus oryzae (strain ATCC 42149 / RIB 40))

>  <Unit Label>
%

>  <inhibition>
47.2

$$$$
>  <Compound>
Cc1ccc(Nc2ccccc2N)cc1

>  <Assayed Target>
Guanyl-specific ribonuclease T1 (Aspergillus oryzae (strain ATCC 42149 / RIB 40))

>  <Unit Label>
%

>  <inhibition>
36

$$$$
>  <Compound>
CCOc1nnc(C)c2c(C)n(-c3cccc(Cl)c3)nc12

>  <Assayed Target>
Guanyl-specific ribonuclease T1 (Aspergillus oryzae (strain ATCC 42149 / RIB 40))

>  <Unit Label>
%

>  <inhibition>
88.4

$$$$

The value of inhibition measured for the compound CN1/C(=c2/s/c(=C3/C(=O)N(c4ccccc4)NC3=Nc3ccccc3)n(C)c2=O)C(C)(C)c2ccccc21 turned out to be 92.8

The value of inhibition measured for the compound Cn1cccc1/C=C1\SC(=S)N(NC(=O)c2ccc(Cl)cc2)C1=O turned out to be 113

The value of inhibition measured for the compound Cn1c2ccccc2c2cc(/C=C(\NC(=O)c3ccccc3)C(=O)NCC(=O)O)ccc21 turned out to be 92.9

The value of inhibition measured for the compound CC(C)(C)c1ccc(/C=C2\Oc3c(ccc(O)c3CN3CCN(CCO)CC3)C2=O)cc1 turned out to be 45.6

The value of inhibition measured for the compound COC(=O)c1[nH]c2cccc(C)c2c1NC(=O)CN1CCCc2ccccc21 turned out to be 29.8

The value of inhibition measured for the compound Cc1cccn2c(=O)c(/C=C3\SC(=S)N(CC(C)C)C3=O)c(NCCCOC(C)C)nc12 turned out to be 131

The value of inhibition measured for the compound COc1cc(/C=C2/C(=O)NN(c3cccc(Cl)c3)C2=O)cc(Br)c1O turned out to be 150

The value of inhibition measured for the compound CN1/C(=C\C=C2\N=C(c3ccc(F)cc3)OC2=O)C(C)(C)c2ccccc21 turned out to be 140

----------
# Assayed Target: Guanyl-specific ribonuclease T1 (Aspergillus oryzae (strain ATCC 42149 / RIB 40)) (UniProt P00651)
# Procedure Text: RNase T1 inhibitors, counter-screen for TPT1 inhibitor project, biochemical, fluorescence polarization (AID 2153);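 also: plate controls were DMSO wells with enzyme for no effect and wells without RNase T1 for full effect; inhibitors block cleavage so intact labeled substrate keeps polarization high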
# Stated Conditions: RNase T1 cleavage, 1536-well, at 5 µM, stronger effect = higher value
Hit rate of the full screen: of about 2,400 compounds, about 2,000 (83%) were called active. The set was probably picked from earlier hits. A selection follows.
# key: entry, value: inhibition

>  <Smiles Notation>
Nc1c(C(=O)c2cccs2)sc2nsc(SCCN3CCCCC3)c12

>  <Measurement Type>
inhibition

>  <Result>
73.8% (active)

$$$$
>  <Smiles Notation>
O=C(Cc1nc2ccccc2[nH]c1=O)c1ccc(Cl)cc1

>  <Measurement Type>
inhibition

>  <Result>
65.7% (active)

$$$$
>  <Smiles Notation>
O=S(=O)(O)Oc1c[nH]c2ccccc12

>  <Measurement Type>
inhibition

>  <Result>
49.5% (active)

$$$$

As a next step, examine the compound that follows.
The value of inhibition measured for the compound COc1cc2c(cc1O)[C@H](Cc1ccc(Oc3cc(C[C@@H]4NCCc5cc(OC)c(O)cc54)ccc3O)cc1)NCC2 turned out to be 44.2% (active)

----------
# Assayed Target: Guanyl-specific ribonuclease T1 (Aspergillus oryzae (strain ATCC 42149 / RIB 40)) (UniProt P00651)
# Procedure Text: RNase T1 inhibitors, counter-screen for TPT1 inhibitor project, biochemical, fluorescence polarization (AID 2153);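 also: plate controls were DMSO wells with enzyme for no effect and wells without RNase T1 for full effect; inhibitors block cleavage so intact labeled substrate keeps polarization high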
# Stated Conditions: RNase T1 cleavage, 1536-well, at 5 µM, stronger effect = higher value
The campaign covered roughly 2,400 compounds. About 2,000 (83%) were called active. So high a share suggests a set chosen from earlier hits. These entries were drawn from the full list.
# key: entry, value: inhibition
Answer in %, number only, no unit symbol.

>  <Compound>
CCOC(=O)/C(C#N)=C/c1ccc(N2CCN(Cc3ccccc3)CC2)cc1

>  <Unit Label>
%

>  <inhibition>
92.8

$$$$
>  <Compound>
Cc1cc(/C=N/Nc2ccc([N+](=O)[O-])cn2)c(C)n1-c1cccc(C(=O)O)c1

>  <Unit Label>
%

>  <inhibition>
62.8

$$$$
>  <Compound>
COc1ccc(N=C(C)c2sc3ccccc3c2O)cc1

>  <Unit Label>
%

>  <inhibition>
82.8

$$$$
>  <Compound>
Cc1c(CC(=O)N2CCN(C(=O)C3COc4ccccc4O3)CC2)c(=O)oc2c(O)c(O)ccc12 (stereo not given)

>  <Unit Label>
%

>  <inhibition>
8.71

$$$$
>  <Compound>
COc1cc(/C=C(\C#N)c2nc3ccccc3[nH]2)ccc1O

>  <Unit Label>
%

>  <inhibition>
112

$$$$
>  <Compound>
Cc1cccc2cc3c(N)c(C(=O)N4CCCc5ccccc54)sc3nc12

>  <Unit Label>
%

>  <inhibition>
68.5

$$$$

The value of inhibition measured for the compound C=CCC1=C/C(=C\c2c(N)n3nc(CC(=O)N4CCOCC4)sc3nc2=O)C=C(OC)C1=O turned out to be 106

The value of inhibition measured for the compound CN1C(=O)/C(=C/C=C2\SCCN2C)OC1=S turned out to be 165

The value of inhibition measured for the compound Cc1ccc(S(=O)(=O)N(C)c2nc3ccccc3n3c(C(C)C)nnc23)cc1 turned out to be 3.03

The value of inhibition measured for the compound O=C1Nc2cc(C(=O)N3CCN(c4ccc(F)cc4)CC3)ccc2NC1CSCc1cccc(F)c1 (stereo not given) turned out to be 116
